The measured values listed here are drawn from patent US20260116991A1.

# targetOfAssay: monkey GPC3-His protein (monkey)
# assaySummary: ELISA, monkey GPC3-His coated; antibody 0.004 nM
parameter: OD450 nm
API doc: respond with a numeric literal and nothing else, no unit.

Completed entries (count: 3):
>  <binder>
hAb005LH3L1b (antibody, human IgG1, V domains shown) VH: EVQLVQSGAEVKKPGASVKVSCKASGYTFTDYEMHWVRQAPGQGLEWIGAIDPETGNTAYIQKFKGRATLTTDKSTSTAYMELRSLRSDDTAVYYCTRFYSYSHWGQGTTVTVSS VL: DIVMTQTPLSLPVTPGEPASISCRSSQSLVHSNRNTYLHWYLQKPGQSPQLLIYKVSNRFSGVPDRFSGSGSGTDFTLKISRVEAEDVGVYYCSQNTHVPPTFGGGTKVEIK

>  <value>
0.237

$$$$
>  <binder>
hAb007LH2L1a (antibody, human IgG1, V domains shown) VH: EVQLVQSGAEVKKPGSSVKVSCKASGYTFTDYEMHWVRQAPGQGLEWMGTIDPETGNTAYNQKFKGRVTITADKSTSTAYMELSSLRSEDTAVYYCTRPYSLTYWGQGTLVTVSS VL: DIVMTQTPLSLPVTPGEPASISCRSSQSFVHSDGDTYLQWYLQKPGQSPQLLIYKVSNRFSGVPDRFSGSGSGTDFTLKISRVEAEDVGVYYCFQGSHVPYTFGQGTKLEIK

>  <value>
0.093

$$$$
>  <binder>
hAb005LH3L1a (antibody, human IgG1, V domains shown) VH: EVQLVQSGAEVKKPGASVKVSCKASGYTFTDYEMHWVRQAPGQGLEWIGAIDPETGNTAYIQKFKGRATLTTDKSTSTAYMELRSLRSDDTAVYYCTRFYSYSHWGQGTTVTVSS VL: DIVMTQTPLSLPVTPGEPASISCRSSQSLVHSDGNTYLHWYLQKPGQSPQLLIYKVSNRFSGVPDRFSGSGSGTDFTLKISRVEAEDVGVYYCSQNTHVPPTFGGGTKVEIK

>  <value>
0.041

$$$$

Turning now to a further binder:
Field request: OD450 nm | item: hAb003LH1L1 (antibody, human IgG1, V domains shown) VH: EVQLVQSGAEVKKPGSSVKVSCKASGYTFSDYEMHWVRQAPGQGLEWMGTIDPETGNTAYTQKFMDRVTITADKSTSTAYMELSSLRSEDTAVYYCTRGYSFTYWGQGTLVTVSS VL: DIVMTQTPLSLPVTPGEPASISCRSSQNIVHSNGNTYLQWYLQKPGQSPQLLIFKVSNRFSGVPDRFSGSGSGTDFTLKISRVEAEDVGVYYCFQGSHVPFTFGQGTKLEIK 0.467
